Parameter: Ki. Scope: all listed entries.
# target of assay: glucosidase I
# experiment summary: processing glucosidase I, release of [3H]glucose from Glc3Man9GlcNAc

{"compound": "OC[C@@H]1[C@@H](O)[C@H](O)[C@H]2[C@@H](O)CCN21", "measurement name": "Ki", "result": "~20 µM"}

query: # input compound: O[C@H]1[C@H](O)[C@@H](O)CN2CC[C@H](O)[C@H]12 [castanospermine, reference compound] ; wanted: its Ki
result: ~1 µM

* * *

Each entry below carries its measured Ki, system: intestinal sucrase (Homo sapiens).
Sequence (P14410 whole entry): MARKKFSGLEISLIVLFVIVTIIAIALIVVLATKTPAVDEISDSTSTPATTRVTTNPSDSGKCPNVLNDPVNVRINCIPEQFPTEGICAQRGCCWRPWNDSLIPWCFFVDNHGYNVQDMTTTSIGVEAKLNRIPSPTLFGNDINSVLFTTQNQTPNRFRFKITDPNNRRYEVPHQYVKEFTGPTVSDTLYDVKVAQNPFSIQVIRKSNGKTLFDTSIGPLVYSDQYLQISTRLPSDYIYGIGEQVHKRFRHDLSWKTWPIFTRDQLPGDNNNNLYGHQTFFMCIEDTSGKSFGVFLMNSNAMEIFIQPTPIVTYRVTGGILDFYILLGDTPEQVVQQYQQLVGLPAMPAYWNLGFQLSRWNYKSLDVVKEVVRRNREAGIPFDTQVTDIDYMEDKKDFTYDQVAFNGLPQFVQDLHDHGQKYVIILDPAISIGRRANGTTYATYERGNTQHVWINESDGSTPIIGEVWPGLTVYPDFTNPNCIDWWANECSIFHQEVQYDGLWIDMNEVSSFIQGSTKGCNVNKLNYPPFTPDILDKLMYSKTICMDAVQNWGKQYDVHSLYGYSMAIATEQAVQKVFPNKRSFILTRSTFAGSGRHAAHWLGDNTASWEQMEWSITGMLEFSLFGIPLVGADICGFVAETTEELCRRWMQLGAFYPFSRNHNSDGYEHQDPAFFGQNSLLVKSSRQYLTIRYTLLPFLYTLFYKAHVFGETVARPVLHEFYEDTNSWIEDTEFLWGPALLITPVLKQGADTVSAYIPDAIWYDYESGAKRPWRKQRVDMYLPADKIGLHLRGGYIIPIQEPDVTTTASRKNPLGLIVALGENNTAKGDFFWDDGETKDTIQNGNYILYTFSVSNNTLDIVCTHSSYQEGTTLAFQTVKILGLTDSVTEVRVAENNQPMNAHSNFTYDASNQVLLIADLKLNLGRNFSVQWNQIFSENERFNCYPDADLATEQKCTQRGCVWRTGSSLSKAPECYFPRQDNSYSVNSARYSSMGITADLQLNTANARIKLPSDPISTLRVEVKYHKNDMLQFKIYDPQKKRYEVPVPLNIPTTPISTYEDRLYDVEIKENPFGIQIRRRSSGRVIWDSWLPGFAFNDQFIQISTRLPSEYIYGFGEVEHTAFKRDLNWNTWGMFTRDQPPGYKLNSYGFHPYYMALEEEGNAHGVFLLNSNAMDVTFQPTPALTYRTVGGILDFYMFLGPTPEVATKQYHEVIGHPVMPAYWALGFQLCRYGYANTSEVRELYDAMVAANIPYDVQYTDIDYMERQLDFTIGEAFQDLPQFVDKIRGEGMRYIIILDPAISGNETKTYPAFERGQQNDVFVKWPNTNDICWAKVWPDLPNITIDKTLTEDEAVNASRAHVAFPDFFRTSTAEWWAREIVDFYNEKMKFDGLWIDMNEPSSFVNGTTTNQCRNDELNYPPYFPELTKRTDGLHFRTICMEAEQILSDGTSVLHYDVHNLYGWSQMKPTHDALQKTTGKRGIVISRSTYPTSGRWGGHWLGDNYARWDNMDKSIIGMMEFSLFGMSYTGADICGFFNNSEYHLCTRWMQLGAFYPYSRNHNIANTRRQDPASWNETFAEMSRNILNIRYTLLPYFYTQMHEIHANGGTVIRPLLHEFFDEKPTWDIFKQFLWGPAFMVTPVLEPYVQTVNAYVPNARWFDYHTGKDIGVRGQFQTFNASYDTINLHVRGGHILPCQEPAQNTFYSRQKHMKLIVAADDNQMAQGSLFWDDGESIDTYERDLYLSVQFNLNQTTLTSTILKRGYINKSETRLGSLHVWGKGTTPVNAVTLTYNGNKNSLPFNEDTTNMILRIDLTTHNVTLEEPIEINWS

{"compound": "O[C@H]1[C@H](O)[C@@H](O)CN2CC[C@H](O)[C@H]12 [castanospermine, reference compound]", "target of assay": "intestinal sucrase (Homo sapiens)", "Ki": "< 1 µM"}

query: Returns the measured Ki for the input compound. Input: OC[C@@H]1[C@@H](O)[C@H](O)[C@H]2[C@@H](O)CCN21 [australine]
result: ~28 µM

* * *

# target of assay: intestinal maltase
# experiment summary: intestinal maltase activity, maltitol as substrate
measurement name: Ki

{"molecule": "OC[C@@H]1[C@@H](O)[C@H](O)[C@H]2[C@@H](O)CCN21 [australine]", "target of assay": "intestinal maltase", "Ki": "~35 µM"}

Attention now shifts to the item below.
query: Suppose we examine the molecule O[C@H]1[C@H](O)[C@@H](O)CN2CC[C@H](O)[C@H]12 [castanospermine, reference compound] ; what Ki value has been reported?
result: < 1 µM

Data provenance: patent US5021427A
